Numbers sourced from patent US20100099619A1.

Measured Y5RBA by item
TEST TARGET: T1, neuropeptide Y5 receptor (Homo sapiens (Human)), Q15761
T1 chain: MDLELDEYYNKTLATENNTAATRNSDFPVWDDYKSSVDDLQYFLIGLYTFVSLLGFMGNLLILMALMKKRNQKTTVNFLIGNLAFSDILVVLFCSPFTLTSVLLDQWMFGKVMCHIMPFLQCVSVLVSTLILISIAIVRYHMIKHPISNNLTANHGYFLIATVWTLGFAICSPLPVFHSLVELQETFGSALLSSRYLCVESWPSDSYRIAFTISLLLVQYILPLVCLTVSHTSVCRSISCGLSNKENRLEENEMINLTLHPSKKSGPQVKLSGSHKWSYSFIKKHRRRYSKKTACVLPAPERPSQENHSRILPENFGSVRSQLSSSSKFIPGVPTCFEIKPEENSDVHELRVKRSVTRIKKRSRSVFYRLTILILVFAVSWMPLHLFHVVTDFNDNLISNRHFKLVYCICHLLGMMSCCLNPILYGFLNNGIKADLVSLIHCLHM
PROTOCOL: radioligand competition, [125I]-hPYY, Y5/CHO-K1 membranes
I only need the number, in nM, no unit after it.

Answered examples (2):
| BINDER | UNIT SPEC | Y5RBA |
| --- | --- | --- |
| YPIKPEAGPEDASPEELAQYAADLRRYINMLTRQRY (modifications not checked) [SEQ ID NO 335] | nM | 3.6 |
| YPIKPEAPGEDASPQELAQYAADLRRYINMLTRQRY (modifications not checked) [SEQ ID NO 341] | nM | 0.3 |

I'd like to know its Y5RBA. The binder in question is APLEPVYPGDNASPEELNRYYASLRHYLNLVTRQRY (modifications not checked) [SEQ ID NO 297]
1.8

Again, but for APLEPVYPGDNATPEELNRYYASLRHYLNLVTRQRY (modifications not checked) [SEQ ID NO 296]
2.1
